Overview of recorded melting point for various compounds

Study these solved cases before continuing.
compound	melting point
CCOC(=O)C1Cc2cc3c(CC)noc3c(Cl)c2O1 (stereo not given)	95 to 96 °C
COC(C)(C)O[C@H]1C(=O)N[C@H]1c1ccccc1	136 to 137 °C
CCOC(Cc1ccc(OCCN2c3ccccc3Oc3ccccc32)cc1)C(=O)O (stereo not given)	86 to 102 °C
NC(=S)NC[C@H]1CN(c2ccc(N3CCOCC3)c(F)c2)C(=O)O1	199 to 200 °C
CCOC(=O)CNS(=O)(=O)C(F)(F)F	73 to 75 °C

Request: I am curious: what melting point value has been reported for "Cc1sc(-c2cccc(Br)c2)nc1O" ?
Result: 148 to 149 °C

Request: Input "CC(C)n1nc(-c2cnc(N)nc2-c2cccc(F)c2)ccc1=O"
Result: 220 to 222 °C

Request: Input "O=C1NC(=O)c2c1cc1ccc3c(c1c2-c1ccc(F)cc1)OCO3"
Result: 269 to 271 °C

Request: Input "NS(=O)(=O)c1cc(S(N)(=O)=O)c(C(Cl)=C(Cl)Cl)cc1NCc1ccco1"
Result: 155 °C

Request: Input "O[C@@H]1[C@H](O)[C@H](O)CO[C@H]1n1c(Br)nc2cc(Cl)c(Cl)cc21"
Result: 164 to 165 °C
